We begin with a simple list: items and their reported self-aminoacylation.
- Test system: biotinyl-Ile-oxazolone
- PROCEDURE TEXT: self-aminoacylation, catalytic enhancement (BIO) (fold over background); higher = more active; k-Seq, kA / k0A0; sequences stand for … in GGGAAUGGAUCCACAUCUACGAAUUC…UUCACUGCAGACUUGACGAAGCUG
Fewer inactive variants are shown than the library holds.
Answer field: number only, no words.

AUUCACCUAGGUGAUCUGGUG [Fam2.2 aminoacylation ribozyme variant] = 1.34
CCAAACUUCAAGCAUUCGGUC [Fam1B.1 aminoacylation ribozyme variant] = 2.1
AAGUUUGCUAAUAAUCGCAUG [Fam3.1 aminoacylation ribozyme variant] = 0.866
AUUACCCUGGUCUUAGAGUGA [Fam2.1 aminoacylation ribozyme variant] = 4.28

[ask] Item under review: AGUACCCUGGUCAUCAAGUGA [Fam2.1 aminoacylation ribozyme variant] . Reported self-aminoacylation?
[reply] 1.61

[ask] Entry to check: AUUACCCUGGUCAUCGCUUGA [Fam2.1 aminoacylation ribozyme variant]
[reply] 2.09

[ask] Entry to check: UUUAUCCUGGUCAUCGAGUGA [Fam2.1 aminoacylation ribozyme variant]
[reply] 5.25

###

- System: biotinyl-Phe-oxazolone
- PROCEDURE TEXT: self-aminoacylation, catalytic enhancement (BFO) (fold over background); higher = more active; k-Seq, kA / k0A0; sequences stand for … in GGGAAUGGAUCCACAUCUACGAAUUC…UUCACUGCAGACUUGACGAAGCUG
Fewer inactive variants are shown than the library holds.
We begin with a simple list: items and their reported self-aminoacylation.
Answer field: number only, no words.

// known answers, use as guide
AUUGCCCUGGUUAUCGAGUGA [Fam2.1 aminoacylation ribozyme variant] = 58.7
CUACUUCAAACAUUCGGUCUU [Fam1A.1 aminoacylation ribozyme variant] = 0.774
AAGUGUGCUAAUAGUCGCAAG [Fam3.1 aminoacylation ribozyme variant] = 21.7

Next up:
[ask] Item under review: CCCCACUUCUAGCAAUCGGUC [Fam1B.1 aminoacylation ribozyme variant] . Reported self-aminoacylation?
[reply] 2.55

###

- System: biotinyl-Phe-oxazolone
- PROCEDURE TEXT: self-aminoacylation, catalytic enhancement (BFO) (fold over background); higher = more active; k-Seq, kA / k0A0; sequences stand for … in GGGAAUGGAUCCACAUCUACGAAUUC…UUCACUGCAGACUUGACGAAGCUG
Fewer inactive variants are shown than the library holds.
ENDPOINT NAME: self-aminoacylation
Answer field: number only, no words.

// known answers, use as guide
GCACACUUCAAGCGAUCGGUC [Fam1B.1 aminoacylation ribozyme variant] = 1.41
AUUACCCUGGUCAUCGAGAGA [Fam2.1 aminoacylation ribozyme variant] = 3.1
AAGUUUGCUUAUAGUGGCAAG [Fam3.1 aminoacylation ribozyme variant] = 1.38

[ask] Item under review: UAGUUUGCUAAUAUUCGCAAG [Fam3.1 aminoacylation ribozyme variant] . Reported self-aminoacylation?
[reply] 1.71

[ask] Entry to check: AAGUUUGCUAAAAGUCGCUAG [Fam3.1 aminoacylation ribozyme variant]
[reply] 1.38

###

- System: biotinyl-Phe-oxazolone
- PROCEDURE TEXT: self-aminoacylation, catalytic enhancement (BFO) (fold over background); higher = more active; k-Seq, kA / k0A0; sequences stand for … in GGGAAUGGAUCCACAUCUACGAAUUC…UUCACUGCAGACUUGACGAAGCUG
This sample holds only a part of the variants without activity.
We begin with a simple list: items and their reported self-aminoacylation.
Answer field: number only, no words.

AUUACCCUGGUCAUCGCCUGA [Fam2.1 aminoacylation ribozyme variant] = 14.2
AAGUUUGCUAAUGGUCGCAAA [Fam3.1 aminoacylation ribozyme variant] = 2.48
AUUCCCAUGGUCAUCGAGUGA [Fam2.1 aminoacylation ribozyme variant] = 51.4
GUUCACCUAGGUCAUCGAGUG [Fam2.2 aminoacylation ribozyme variant] = 27.6

[ask] Item under review: AUAACCCUGGUCGUCGAGUGA [Fam2.1 aminoacylation ribozyme variant] . Reported self-aminoacylation?
[reply] 2.78
